# TARGET_OF_ASSAY: c-Src SH2;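 further: peptide library displayed on the E. coli surface as eCPX fusions, selected cells deep-sequenced, score is each peptide's frequency after selection divided by its frequency in the input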
# TEST: SH2 binding enrichment of the phosphorylated peptide, bacterial display (enrichment ratio); higher = better substrate or ligand; peptides without Tyr show the background
PARAMETER_MEASURED: SH2 binding enrichment

Guide cases for SH2 binding enrichment, answers given:
[[record]]
sequence_entry = "ETKTPYTVILI [SBDS_Y128_R126T]"
parameter_measured = "SH2 binding enrichment"
reported_result = 0.54

[[record]]
sequence_entry = "ATHSGYRLNDY [CLDN14_Y233]"
parameter_measured = "SH2 binding enrichment"
reported_result = 0.49

[[record]]
sequence_entry = "SNMPTYSGHFS [GRIN2A_Y1224_T1229S]"
parameter_measured = "SH2 binding enrichment"
reported_result = 0.491

[[record]]
sequence_entry = "PRAGVYPEKDQ [DNM2_Y626_L621P]"
parameter_measured = "SH2 binding enrichment"
reported_result = 0.403

[[record]]
sequence_entry = "TNYSLYLRSLE [MTM1_Y71_R69S]"
parameter_measured = "SH2 binding enrichment"
reported_result = 0.669

[[record]]
sequence_entry = "NFDLDYDSVQP [MYC_Y16_YF]"
parameter_measured = "SH2 binding enrichment"
reported_result = 0.595

[[record]]
sequence_entry = "QRRFVYFFSFL [PTEN_Y176_YF]"
parameter_measured = "SH2 binding enrichment"
reported_result = 0.642

[[record]]
sequence_entry = "SLLTDCSPQLQ [OTC_Y345_Y345C]"
parameter_measured = "SH2 binding enrichment"
reported_result = 0.483

[[record]]
sequence_entry = "ILTLKYPIELG [ACTA1_Y71_H75L]"
parameter_measured = "SH2 binding enrichment"
reported_result = 0.731

[[record]]
sequence_entry = "TTGLIYIGSHD [AASDH_Y870]"
parameter_measured = "SH2 binding enrichment"
reported_result = 0.624


[1] ADARMYGDLPW [PLP1_Y207_V209D]
[2] EKSREYDRLYE [PIK3R1_Y463]
[3] CITIHYNFMCN [TP53_Y234_T230I_YF]
[4] QRKRAYVEIEY [MAK16_Y282]
# sort list by recorded SH2 binding enrichment, greatest to least // rank by listing labels in the order requested 2, 4, 3, 1
(2: 16.9, 4: 4.61, 3: 1.52, 1: 0.573)
